These measurements were taken from patent US20260083865A1.

Molecular target: Fc-fusion protein of human PSMA (hPSMA-Fc) (Homo sapiens, UniProt Q04609)
Construct: purchased Acro Biosystems PSA-H5264
Assay: Surface plasmon resonance assay (Biacore T200, single cycle kinetic)
Format: binding
Details: pKD category for PSMA SPR activity assay, hPSMA-Fc, 25° C.; read-out: pKD CAT (converted)
Numbered stars: 1 amine (or outer) side, 2 acyl side, 3 side chain; on linkers, the order of the positions; unused ones are H or OH. Bridge positions count the residues as written; N and C are the ends. Square brackets hold non-standard residues; d marks the D form. Peptide text beside a SMILES is read from it. * marks the point of attachment. DOTA = O=C(O)CN1CCN(CC(=O)O)CCN(CC(=O)*)CCN(CC(=O)O)CC1; Phe(4-Cl) = N[C@@H](Cc1ccc(Cl)cc1)C(=O)O; Ethylenediamine = C(CN[*:2])N[*:1]; Cit = NC(=O)NCCC[C@H](N)C(=O)O; Lys(Me) = CNCCCC[C@H](N)C(=O)O; Tle = CC(C)(C)[C@H](N)C(=O)O; Aib = CC(C)(N)C(=O)O
The entries below are paired with their reported Kd.

Lab note: measured Kd of CNCCCC[C@@H]1NC(=O)[C@@H](NC(=O)[C@H](Cc2ccc(Cl)cc2)NC(=O)C(C)(C)NC(C)=O)CSSC[C@@H](C(=O)N[C@H](C(=O)NCCNC(=O)CN2CCN(CC(=O)O)CCN(CC(=O)O)CCN(CC(=O)O)CC2)C(C)(C)C)NC(=O)[C@H](CC(N)=O)NC(=O)C(C)(C)NC(=O)[C@H](CCCNC(=N)N)NC1=O [PSM-0472] (Ac-[Aib][Phe(4-Cl)]C[Lys(Me)]R[Aib]NC[Tle]-{Ethylenediamine-DOTA}; disulfide 3-8) was < 12.6 nM

Lab note: measured Kd of CC(=O)N[C@H](C(=O)NC(C)(C)C(=O)N[C@@H](Cc1ccc(Cl)cc1)C(=O)N[C@H]1CSSC[C@@H](C(=O)N[C@H](CC(C)C)C(=O)N[C@H](C(N)=O)[C@@H](C)O)NC(=O)[C@H](CC(N)=O)NC(=O)C(C)(C)NC(=O)[C@H](CCCNC(N)=O)NC(=O)[C@H](CCCCN)NC1=O)[C@@H](C)O [PSM-0421] (Ac-T[Aib][Phe(4-Cl)]CK[Cit][Aib]NC[dL]T-NH2; disulfide 4-9) was 126 to 501 nM

Lab note: measured Kd of CC(=O)N[C@H](C(=O)NC(C)(C)C(=O)N[C@@H](Cc1ccccc1)C(=O)N[C@H]1CSSC[C@@H](C(=O)N[C@H](C(=O)N[C@H](C(N)=O)[C@@H](C)O)C(C)(C)C)NC(=O)[C@H](CC(=O)O)NC(=O)C(C)(C)NC(=O)[C@H](CCCNC(=N)N)NC(=O)[C@H](CCCCN)NC1=O)[C@@H](C)O [PSM-0478] (Ac-T[Aib]FCKR[Aib]DC[Tle]T-NH2; disulfide 4-9) was < 12.6 nM

---

Molecular target: PSMA-expressing C4-2 cells (Homo sapiens, UniProt Q04609)
Construct: PSMA-expressing C4-2 cells (ATCC, Cat. No. CRL-3314) were cultured in RPMI-1640; host or cells: C4-2 cells
Sequence (Q04609 whole entry): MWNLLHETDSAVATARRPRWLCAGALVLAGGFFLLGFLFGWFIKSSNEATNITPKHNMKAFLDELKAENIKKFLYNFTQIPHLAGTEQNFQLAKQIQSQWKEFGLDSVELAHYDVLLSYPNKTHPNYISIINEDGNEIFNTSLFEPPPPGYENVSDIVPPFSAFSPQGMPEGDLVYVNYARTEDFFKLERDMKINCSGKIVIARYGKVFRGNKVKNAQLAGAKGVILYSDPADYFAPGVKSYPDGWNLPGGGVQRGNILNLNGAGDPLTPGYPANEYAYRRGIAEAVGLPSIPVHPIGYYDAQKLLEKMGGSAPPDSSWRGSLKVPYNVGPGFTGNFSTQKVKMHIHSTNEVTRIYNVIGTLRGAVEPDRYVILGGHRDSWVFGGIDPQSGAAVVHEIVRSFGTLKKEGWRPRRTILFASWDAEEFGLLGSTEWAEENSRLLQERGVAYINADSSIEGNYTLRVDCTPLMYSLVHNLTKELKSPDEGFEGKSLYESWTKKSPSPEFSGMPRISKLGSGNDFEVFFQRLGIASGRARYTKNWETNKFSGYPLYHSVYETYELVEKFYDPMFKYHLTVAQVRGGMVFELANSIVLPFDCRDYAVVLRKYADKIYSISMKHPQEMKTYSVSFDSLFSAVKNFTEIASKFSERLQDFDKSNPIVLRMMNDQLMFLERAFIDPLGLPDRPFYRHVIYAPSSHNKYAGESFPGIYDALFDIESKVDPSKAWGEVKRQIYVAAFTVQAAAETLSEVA
Assay: FACS binding assay (competition with 50 nM PSM-0183)
Details: FACS binding, PSMA-expressing C4-2 cells; pIC50 category; read-out: pIC50 [C4-2] CAT (converted)
Bridge positions count the residues as written; N and C are the ends. Square brackets hold non-standard residues; d marks the D form. Peptide text beside a SMILES is read from it. Tle = CC(C)(C)[C@H](N)C(=O)O; Aib = CC(C)(N)C(=O)O
The entries below are paired with their reported IC50.

Measured on PSMA-expressing C4-2 cells (Homo sapiens, UniProt Q04609), CCCC[C@H](NC(=O)[C@@H]1CSSC[C@H](NC(=O)[C@H](Cc2ccccc2)NC(=O)[C@H](C)NC(=O)[C@@H](NC(C)=O)[C@@H](C)O)C(=O)N[C@@H](CCCCN)C(=O)N[C@@H](CCCNC(=N)N)C(=O)N[C@@H](C)C(=O)N[C@@H](CC(N)=O)C(=O)N1)C(=O)N[C@H](C(=O)N[C@@H](CC(=O)O)C(N)=O)[C@@H](C)O has a documented IC50 of < 200 nM

Measured on PSMA-expressing C4-2 cells (Homo sapiens, UniProt Q04609), CC(=O)N[C@H](C(=O)NC(C)(C)C(=O)N[C@@H](Cc1ccccc1)C(=O)N[C@H]1CSSC[C@H](C(=O)N[C@H](C(=O)N[C@H](C(N)=O)[C@@H](C)O)C(C)(C)C)NC(=O)[C@H](CC(N)=O)NC(=O)C(C)(C)NC(=O)[C@H](CCCNC(=N)N)NC(=O)[C@H](CCCCN)NC1=O)[C@@H](C)O [PSM-0331] (Ac-T[Aib]FCKR[Aib]N[dC][Tle]T-NH2; disulfide 4-9) has a documented IC50 of 200 to 1260 nM
